- Test system: Streptococcus pneumoniae
- experiment-notes: Antimicrobial activity against Streptococcus pneumoniae ATCC BAA-343
- Format: functional
measured-attribute: MIC (µg/mL)
State just the number; it will be interpreted in µg/mL.

Use the examples below as a reference point.
- compound: "CC1(C)S[C@@H]2[C@H](NC(=O)Cc3ccccc3)C(=O)N2[C@H]1C(=O)O"
  measured-attribute: "MIC"
  units-of-measure: "µg/mL"
  value-measured: 8
- compound: "CO/N=C(\\C(=O)N[C@@H]1C(=O)N2C(C(=O)O)=C(COC(N)=O)CS[C@H]12)c1ccco1"
  measured-attribute: "MIC"
  units-of-measure: "µg/mL"
  value-measured: 8
- compound: "CO/N=C(\\C(=O)N[C@@H]1C(=O)N2C(C(=O)O)=C(CSc3nc(=O)c(O)nn3C)CS[C@H]12)c1csc(N)n1"
  measured-attribute: "MIC"
  units-of-measure: "µg/mL"
  value-measured: 4

Check the records and state MIC for "C[C@@H](O)[C@H]1C(=O)N2C(C(=O)O)=C(S[C@@H]3CN[C@H](C(=O)N(C)C)C3)[C@H](C)[C@H]12"
0.5

Report measured MIC; entry is CO/N=C(\C(=O)N[C@@H]1C(=O)N2C(C(=O)[O-])=C(C[N+]3(C)CCCC3)CS[C@H]12)c1csc(N)n1 [CEFEPIME]
4

Please list MIC recorded for the compound "CO/N=C(\C(=O)N[C@@H]1C(=O)N2C(C(=O)O)=C(COC(C)=O)CS[C@H]12)c1csc(N)n1"
4

Could you please provide reported MIC for "CC1(C)S[C@@H]2[C@H](NC(=O)[C@H](N)c3ccc(O)cc3)C(=O)N2[C@H]1C(=O)O" ? Thanks!
2

====

- System: Streptococcus pneumoniae
- experiment-notes: Antimicrobial activity against Streptococcus pneumoniae isolate 909 obtained from bronchoalveolar lavage fluid of patient
- Format: functional
- condition-info: isolate 909, Lung
measured-attribute: MIC (µg/mL)
Reply with just the number (in µg/mL).

- compound: "CO/N=C(\\C(=O)N[C@@H]1C(=O)N2C(C(=O)[O-])=C(C[N+]3(C)CCCC3)CS[C@H]12)c1csc(N)n1 [CEFEPIME]"
  subject-of-test: "Streptococcus pneumoniae"
  units-of-measure: "µg/mL"
  MIC: 1
- compound: "CO/N=C(\\C(=O)N[C@@H]1C(=O)N2C(C(=O)O)=C(COC(N)=O)CS[C@H]12)c1ccco1"
  subject-of-test: "Streptococcus pneumoniae"
  units-of-measure: "µg/mL"
  MIC: 8
- compound: "CO/N=C(\\C(=O)N[C@@H]1C(=O)N2C(C(=O)O)=C(COC(C)=O)CS[C@H]12)c1csc(N)n1"
  subject-of-test: "Streptococcus pneumoniae"
  units-of-measure: "µg/mL"
  MIC: 2
- compound: "CO/N=C(\\C(=O)N[C@@H]1C(=O)N2C(C(=O)O)=C(CSc3nc(=O)c(O)nn3C)CS[C@H]12)c1csc(N)n1"
  subject-of-test: "Streptococcus pneumoniae"
  units-of-measure: "µg/mL"
  MIC: 1
- compound: "CC1(C)S[C@@H]2[C@H](NC(=O)[C@H](N)c3ccc(O)cc3)C(=O)N2[C@H]1C(=O)O"
  subject-of-test: "Streptococcus pneumoniae"
  units-of-measure: "µg/mL"
  MIC: 8
- compound: "C[C@@H](O)[C@H]1C(=O)N2C(C(=O)O)=C(S[C@@H]3CN[C@H](C(=O)N(C)C)C3)[C@H](C)[C@H]12"
  subject-of-test: "Streptococcus pneumoniae"
  units-of-measure: "µg/mL"
  MIC: 0.25

Please find the next compound below.
Look up and report MIC, with Streptococcus pneumoniae as system, for "CC1(C)S[C@@H]2[C@H](NC(=O)Cc3ccccc3)C(=O)N2[C@H]1C(=O)O"
4

====

- Test system: Streptococcus pneumoniae
- experiment-notes: Antimicrobial activity against Streptococcus pneumoniae isolate k-598 obtained from bronchoalveolar lavage fluid of patient
- Assay type: functional
- condition-info: Lung
Recorded MIC, one value per entry.
Numbers only; they are read as µg/mL.

Consider the reported MIC for these molecules:
- molecule: "CO/N=C(\\C(=O)N[C@@H]1C(=O)N2C(C(=O)[O-])=C(C[N+]3(C)CCCC3)CS[C@H]12)c1csc(N)n1 [CEFEPIME]"
  subject-of-test: "Streptococcus pneumoniae"
  value-measured: 8
- molecule: "CO/N=C(\\C(=O)N[C@@H]1C(=O)N2C(C(=O)O)=C(CSc3nc(=O)c(O)nn3C)CS[C@H]12)c1csc(N)n1 [CEFTRIAXONE]"
  subject-of-test: "Streptococcus pneumoniae"
  value-measured: 4
- molecule: "CC1(C)S[C@@H]2[C@H](NC(=O)Cc3ccccc3)C(=O)N2[C@H]1C(=O)O [PENICILLIN G]"
  subject-of-test: "Streptococcus pneumoniae"
  value-measured: 8

Here is another molecule to look at.
Answer with MIC of C[C@@H](O)[C@H]1C(=O)N2C(C(=O)O)=C(S[C@@H]3CN[C@H](C(=O)N(C)C)C3)[C@H](C)[C@H]12 [MEROPENEM] measured for Streptococcus pneumoniae.
0.5
